- measurement-target: human TLR9 (Homo sapiens (Human), UniProt Q9NR96)
- Sequence (Q9NR96 26-1032): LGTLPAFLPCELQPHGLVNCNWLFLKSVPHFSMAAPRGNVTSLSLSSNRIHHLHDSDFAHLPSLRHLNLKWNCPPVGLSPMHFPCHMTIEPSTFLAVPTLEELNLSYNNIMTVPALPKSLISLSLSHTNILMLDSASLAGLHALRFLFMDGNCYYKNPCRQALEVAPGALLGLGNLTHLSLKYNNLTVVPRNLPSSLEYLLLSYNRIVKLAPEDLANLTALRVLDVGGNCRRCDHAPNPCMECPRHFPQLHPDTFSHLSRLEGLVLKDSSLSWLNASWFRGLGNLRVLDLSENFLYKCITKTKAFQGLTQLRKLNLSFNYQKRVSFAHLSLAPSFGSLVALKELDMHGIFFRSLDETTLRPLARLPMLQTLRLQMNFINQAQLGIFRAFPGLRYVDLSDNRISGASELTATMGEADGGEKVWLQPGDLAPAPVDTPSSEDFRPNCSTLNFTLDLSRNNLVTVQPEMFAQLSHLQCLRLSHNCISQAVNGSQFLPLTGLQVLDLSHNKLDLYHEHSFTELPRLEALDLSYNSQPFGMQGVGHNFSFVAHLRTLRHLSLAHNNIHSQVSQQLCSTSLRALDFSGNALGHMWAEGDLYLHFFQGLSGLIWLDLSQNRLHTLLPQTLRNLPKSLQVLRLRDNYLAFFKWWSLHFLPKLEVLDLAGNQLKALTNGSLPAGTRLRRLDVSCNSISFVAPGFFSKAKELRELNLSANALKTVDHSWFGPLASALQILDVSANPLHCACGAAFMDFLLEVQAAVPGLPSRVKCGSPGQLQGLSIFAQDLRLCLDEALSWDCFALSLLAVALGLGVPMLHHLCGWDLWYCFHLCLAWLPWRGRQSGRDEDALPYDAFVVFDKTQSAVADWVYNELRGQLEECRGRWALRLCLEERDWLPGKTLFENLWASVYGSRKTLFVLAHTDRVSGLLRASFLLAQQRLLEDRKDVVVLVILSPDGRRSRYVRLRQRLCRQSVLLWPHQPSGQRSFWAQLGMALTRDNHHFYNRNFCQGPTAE
- protocol-description: TLR9 inhibition reporter assay (HEK-Blue SEAP);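 also: SEAP driven by an IFN-β minimal promoter with NF-κB and AP-1 sites, read after 22 h, compounds dosed 0.05 nM–50 µM, inhibition scaled between agonist plus DMSO and reference-inhibitor wells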
- conditions: read-out: TLR9 IC50; HEK-Blue cells overexpressing human TLR9, ODN2006 5 nM stimulation, SEAP reporter
readout-label: IC50

{"molecule": "COc1cc(-c2[nH]c3cc(C)c(C4CCC(NCC(C)(C)O)CC4)nc3c2C(C)C)cn2ncnc12 (stereo not shown) [Example 314]", "recorded-value": "5.51 µM"}

What reported IC50 corresponds to CNC(=O)CN(C)C1CCC(c2ccc3[nH]c(-c4cc(OC)c5ncnn5c4)c(C(C)C)c3n2)CC1 (stereo not shown) [Example 210] on human TLR9 (Homo sapiens (Human), UniProt Q9NR96)?
> 50 µM

What reported IC50 corresponds to Cc1c(-c2[nH]c3ccc(C4CCC(NCC5(S(C)(=O)=O)CC5)CC4)nc3c2C(C)C)cn2ncnc2c1C (stereo not shown) [Example 4] on human TLR9 (Homo sapiens (Human), UniProt Q9NR96)?
1.07 µM

What reported IC50 corresponds to COc1cc(-c2[nH]c3ccc(C4CCC(NCC(=O)N(C)C)CC4)nc3c2C(C)C)cn2ncnc12 (stereo not shown) [Example 232] on human TLR9 (Homo sapiens (Human), UniProt Q9NR96)?
0.484 µM

What reported IC50 corresponds to Cc1c(-c2[nH]c3ccc(C4CCC(NCCC#N)CC4)nc3c2C(C)C)cn2ncnc2c1C (stereo not shown) [Example 384] on human TLR9 (Homo sapiens (Human), UniProt Q9NR96)?
1.53 µM

What reported IC50 corresponds to CNC1CN(c2ccc3[nH]c(-c4cn5ncnc5c(C)c4C)c(C(C)C)c3n2)C1 [Example 23] on human TLR9 (Homo sapiens (Human), UniProt Q9NR96)?
> 50 µM

What reported IC50 corresponds to COc1cc(-c2[nH]c3ccc(C4CCC(N5CCCC5)CC4)nc3c2C(C)C)cn2ncnc12 (stereo not shown) [Example 192] on human TLR9 (Homo sapiens (Human), UniProt Q9NR96)?
1.11 µM
